Entries with their measured pKi, system UniProt:Q72874:
The meaning of pKi here: minus log10 of the concentration in molar units.

| compound | pKi |
| --- | --- |
| O=C1N(CC2CC2)[C@H]([C@@H](O)Cc2ccccc2)[C@@H](O)[C@@H](Cc2ccccc2)N1CC1CC1 | 6.39 |

# input compound: N/C(=N\O)c1cccc(CN2C(=O)N(CC3CC3)[C@H](CCc3ccccc3)[C@@H](O)[C@H]2Cc2ccccc2)c1 ; wanted: its pKi
# output 9.32

# input compound: NC(=O)c1cccc(CN2C(=O)N3C(Cc4ccccc4)[C@@H]3[C@@H](O)[C@H]2Cc2ccccc2)c1 (stereo not given in full) ; wanted: its pKi
# output 6.49

# input compound: O=C1N(Cc2cccc(-c3cc[nH]n3)c2)[C@H](CCc2ccccc2)[C@@H](O)[C@@H](Cc2ccccc2)N1Cc1cccc(-c2cc[nH]n2)c1 ; wanted: its pKi
# output 10.00

# input compound: N=C(NO)c1cccc(CN2C(=O)N(Cc3cccc(C(=N)NO)c3)[C@H](Cc3ccc(F)cc3)[C@H](O)[C@H]2CCc2ccc(F)cc2)c1 ; wanted: its pKi
# output 10.70

# input compound: O=C1N(Cc2ccc3c[nH]nc3c2)[C@H](CCc2ccccc2)[C@@H](O)[C@@H](Cc2ccccc2)N1Cc1ccc2c[nH]nc2c1 ; wanted: its pKi
# output 10.22

# input compound: N#Cc1cc(CN2C(=O)N[C@H](CCc3ccccc3)[C@@H](O)[C@H]2Cc2ccccc2)ccc1F ; wanted: its pKi
# output 6.96

# input compound: N/C(=N\O)c1cccc(CN2C(=O)N(Cc3cccc(N)c3)[C@H](Cc3ccccc3)[C@H](O)[C@H]2CCc2ccccc2)c1 ; wanted: its pKi
# output 10.70

# input compound: O=C1N(Cc2ccccc2)[C@H](/C=C/c2ccccc2)[C@@H](O)[C@@H](Cc2ccccc2)N1Cc1ccccc1 ; wanted: its pKi
# output 6.34

# input compound: Nc1noc2ccc(CN3C(=O)N(Cc4ccc5onc(N)c5c4)[C@H](Cc4ccccc4)[C@H](O)[C@H]3CCc3ccccc3)cc12 ; wanted: its pKi
# output 9.39

# input compound: Nc1cccc(CN2C(=O)N[C@H](Cc3ccccc3)[C@H](O)[C@H]2CCc2ccccc2)c1 ; wanted: its pKi
# output 6.80

# input compound: N#Cc1cccc(CN2C(=O)N(Cc3cccc(C#N)c3)[C@H](Cc3ccc(F)cc3)[C@H](O)[C@H]2CCc2ccc(F)cc2)c1 ; wanted: its pKi
# output 7.85

# input compound: N=C(NO)c1cccc(CN2C(=O)N(Cc3cccc(C(=N)NO)c3)[C@H](Cc3ccc(F)c(F)c3)[C@H](O)[C@H]2CCc2ccc(F)c(F)c2)c1 ; wanted: its pKi
# output 11.00

# input compound: N#Cc1cc(CN2C(=O)N(Cc3ccccc3)[C@H](CCc3ccccc3)[C@@H](O)[C@H]2Cc2ccccc2)ccc1F ; wanted: its pKi
# output 7.40

# input compound: O=C1N(Cc2cccc(O)c2)[C@H]([C@@H](F)Cc2ccccc2)[C@@H](O)[C@@H](Cc2ccccc2)N1Cc1cccc(O)c1 ; wanted: its pKi
# output 7.92

src = ChEMBL document CHEMBL1132197
